Hey, just so you know, these numbers are from patent US20240262783A1.

- method_notes: Comparison of solubility (shaken at 37° C. for 24 h, HPLC)
- Type: physicochemical
- condition_summary: 37 °C, pH 5, aqueous buffer, thermodynamic from solid, Solubility
Where a name gives a salt, the structure may show the parent alone.
recorded_metric: solubility at 24 h

q: Need solubility at 24 h, item CCCCCCCCc1ccc(CCC(N)(CO)CO)cc1 [Fingolimod hydrochloride, reference compound]
a: > 15.6 mg/mL

----------
- method_notes: Comparison of solubility (shaken at 37° C. for 24 h, HPLC)
- Type: physicochemical
- condition_summary: 37 °C, pH 7, aqueous buffer, thermodynamic from solid, Solubility
Where a name gives a salt, the structure may show the parent alone.
recorded_metric: solubility at 24 h

q: Item under review: CCCCCCCCc1ccc(CCC(N)(CO)CO)cc1 [Fingolimod hydrochloride, reference compound] . Reported solubility at 24 h?
a: < 0.15 µg/mL
